system: EKVX NSCLC; assay: NCI tumour cell line growth inhibition, 48 h; in the data active = GI50 below about 0.43 µM; inactive = the rest
Please state which outcome applies, choosing from active, inactive

COc1cc(Cl)c(C)cc1NC(=O)c1cc2ccccc2cc1O | inactive

## Task // param item: COc1cc2c(cc1OC)-c1c(c3ccc([N+](=O)[O-])cc3c(=O)n1CCCBr)C2=O ; yields the recorded call
## Result inactive

## Task // param item: c1ccc(Oc2cnc3ccccc3n2)cc1 ; yields the recorded call
## Result inactive

## Task // param item: COc1ccc2c(C(=O)NCCCCCC(=O)O)cc3cc4c(cc3c2c1)OCO4 ; yields the recorded call
## Result inactive

###

system: IGROV1 ovarian; assay: NCI tumour cell line growth inhibition, 48 h; in the data active means GI50 below about 0.43 µM; inactive means the rest
Please state which outcome applies, choosing from 1 = active, 0 = inactive

## Task // param item: Nc1c(C(=O)Nc2cccc3ccccc23)sc2nc3c(cc12)CCCCCC3 ; yields the recorded call
## Result 0

## Task // param item: N=C(N)c1ccc(-c2ccc(-c3ccccc3)o2)o1 ; yields the recorded call
## Result 0

## Task // param item: C/C(=N\O)c1ccc(Nc2cc(-c3ccccc3)nc3c(O)cccc23)cc1 ; yields the recorded call
## Result 0

## Task // param item: O=C(/C=C/c1ccco1)c1cccc(Nc2nc(Nc3ccccc3)nc(Nc3ccccc3)n2)c1 ; yields the recorded call
## Result 0

## Task // param item: COc1cc(Nc2nccc(-c3cnn4ncccc34)n2)cc(OC)c1 ; yields the recorded call
## Result 1

## Task // param item: CCOc1ccc(-n2cc(-c3ccc(N(C)C)cc3)[n+]3c2CCCCC3)cc1 ; yields the recorded call
## Result 0

## Task // param item: COc1cc(Cl)c(C)cc1NC(=O)c1cc2ccccc2cc1O ; yields the recorded call
## Result 0

## Task // param item: CCCCCCOc1ccc(/C=N/Nc2cc(C)nc3ccc(Br)cc23)cc1 ; yields the recorded call
## Result 0
